Experiment: Pharmacokinetic test in mice
Type: in vivo, ICR mice
Settings: mouse, in vivo, iv, plasma, i.v. (2.5 mg/kg)
Experimental: 3.1 Experimental animals: Male ICR mice, 20-25 g, 6 mice/compound, purchased from Chengdu Dossy Experimental Animals Co., Ltd. 3.2 Experimental design: On the day of the experiment, the ICR mice were randomly grouped according to their body weights. The animals were fasted with water available for 12-14 h one day before the administration, and were fed 4 h after the administration. Table 3.1 Administration information […]
Measure Name: half-life (h)
Give the value, in units of h, as a plain number.

Request: Give me measured half-life, please, for this compound: "C=C1CCN(S(=O)(=O)Nc2ccc(F)c(Oc3ccc4ncn(CC(F)F)c(=O)c4c3)c2C#N)C1"
Result: 6.77
